tested on: GluN1/GluN2B receptors (Rattus norvegicus, UniProt P35439+Q00960)
Construct: expressed in transfected cells; host or cells: HEK293 cells (ATCC No. CRL-1573)
Sequence (Q00960 27-1482, other chains not shown): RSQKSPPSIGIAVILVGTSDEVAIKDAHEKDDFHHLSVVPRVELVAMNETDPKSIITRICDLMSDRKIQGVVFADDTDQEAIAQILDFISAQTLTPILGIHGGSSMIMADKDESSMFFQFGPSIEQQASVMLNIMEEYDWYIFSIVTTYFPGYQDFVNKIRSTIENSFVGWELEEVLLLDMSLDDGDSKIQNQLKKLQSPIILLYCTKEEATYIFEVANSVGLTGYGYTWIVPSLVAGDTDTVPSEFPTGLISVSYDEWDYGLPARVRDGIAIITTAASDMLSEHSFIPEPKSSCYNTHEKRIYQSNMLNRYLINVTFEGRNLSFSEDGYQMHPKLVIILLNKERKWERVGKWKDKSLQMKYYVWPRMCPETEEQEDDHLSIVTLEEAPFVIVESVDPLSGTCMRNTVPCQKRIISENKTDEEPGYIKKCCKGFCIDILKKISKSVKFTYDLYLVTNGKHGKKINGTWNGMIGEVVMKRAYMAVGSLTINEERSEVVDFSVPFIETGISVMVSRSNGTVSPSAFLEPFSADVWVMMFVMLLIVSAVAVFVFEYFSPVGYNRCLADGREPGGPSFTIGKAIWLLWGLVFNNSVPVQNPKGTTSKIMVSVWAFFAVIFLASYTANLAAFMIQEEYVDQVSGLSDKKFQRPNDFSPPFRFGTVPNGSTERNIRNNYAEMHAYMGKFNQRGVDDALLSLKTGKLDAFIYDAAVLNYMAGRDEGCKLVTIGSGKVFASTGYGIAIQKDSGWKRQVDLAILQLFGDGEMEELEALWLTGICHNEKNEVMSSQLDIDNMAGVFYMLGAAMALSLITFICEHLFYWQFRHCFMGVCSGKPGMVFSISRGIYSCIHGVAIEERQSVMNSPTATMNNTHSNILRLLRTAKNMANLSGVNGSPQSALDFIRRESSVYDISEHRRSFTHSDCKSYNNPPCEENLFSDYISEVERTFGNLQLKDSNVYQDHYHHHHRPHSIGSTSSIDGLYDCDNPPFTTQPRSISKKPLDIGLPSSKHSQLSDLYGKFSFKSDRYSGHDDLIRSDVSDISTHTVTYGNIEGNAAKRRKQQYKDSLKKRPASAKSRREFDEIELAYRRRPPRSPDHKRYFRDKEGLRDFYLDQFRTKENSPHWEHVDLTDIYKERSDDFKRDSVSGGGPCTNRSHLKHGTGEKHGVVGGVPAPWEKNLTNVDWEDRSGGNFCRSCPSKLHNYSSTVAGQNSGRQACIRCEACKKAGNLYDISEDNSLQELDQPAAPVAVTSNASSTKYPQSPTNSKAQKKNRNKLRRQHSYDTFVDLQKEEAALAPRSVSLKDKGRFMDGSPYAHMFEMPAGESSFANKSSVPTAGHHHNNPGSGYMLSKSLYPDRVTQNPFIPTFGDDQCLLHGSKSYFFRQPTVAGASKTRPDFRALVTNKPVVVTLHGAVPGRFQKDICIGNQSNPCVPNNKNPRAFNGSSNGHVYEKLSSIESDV
assay comment: Patch-clamp: modulation of glutamate-induced currents of recombinant GluN1/GluN2B receptors expressed in HEK293 cells
Type: cell-based
study conditions: maximal potentiation of currents evoked by 1 µM glutamate and 30 µM glycine; HEK293; mean ± SEM
Recorded measurements of Emax, one per entry
Dear colleague, please return just the value in %, with no unit written.

{"molecule": "CCO/N=C(\\C)[C@H]1CCC2C3CC=C4C[C@@H](OC(=O)CCCCC(=O)O)CC[C@]4(C)C3CC[C@@]21C (stereo partly drawn) [Compound 23]", "display unit": "%", "Emax": 451}
{"molecule": "CCO/N=C(\\C)[C@H]1CCC2C3CC=C4C[C@@H](OC(=O)CCC(=O)O)CC[C@]4(C)C3CC[C@@]21C (stereo partly drawn) [Compound 22]", "display unit": "%", "Emax": 340}
{"molecule": "CCON=C(C)C1CCC2C3CC=C4CC(OC(=O)CCCC(=O)O)CCC4(C)C3CCC12C (stereo not drawn) [Compound 12]", "display unit": "%", "Emax": 673}
{"molecule": "C=CCO/N=C(\\C)[C@H]1CCC2C3CC=C4C[C@@H](OC(=O)CCCC(=O)O)CC[C@]4(C)C3CC[C@@]21C (stereo partly drawn) [Compound 20]", "display unit": "%", "Emax": 317}
{"molecule": "C/C(=N\\OCCN1CCOCC1)[C@H]1CCC2C3CC=C4C[C@@H](OC(=O)CCCC(=O)O)CC[C@]4(C)C3CC[C@@]21C (stereo partly drawn) [Compound 13]", "display unit": "%", "Emax": 111}

Recorded Emax of CCO/N=C1\CCC2C3CC=C4C[C@@H](OC(=O)CCCC(=O)O)CC[C@]4(C)C3CC[C@]12C (stereo partly drawn) [Compound 15] , please.
441

Recorded Emax of CO/N=C(\C)[C@H]1CCC2C3CC=C4C[C@@H](OC(=O)CCCC(=O)O)CC[C@]4(C)C3CC[C@@]21C (stereo partly drawn) [Compound 17] , please.
503

Recorded Emax of C/C(=N\O)[C@H]1CCC2C3CC=C4C[C@@H](OC(=O)CCCC(=O)O)CC[C@]4(C)C3CC[C@@]21C (stereo partly drawn) [Compound 11] , please.
270

Recorded Emax of C/C(=N\OCc1ccccc1)[C@H]1CCC2C3CC=C4C[C@@H](OC(=O)CCCC(=O)O)CC[C@]4(C)C3CC[C@@]21C (stereo partly drawn) [Compound 21] , please.
403

* * *

assay comment: in vitro
study conditions: rat, microsomes, pH 7.4
Recorded measurements of half-life at 10 µM, one per entry

Solved entries:
{"compound": "CCCO/N=C(\\C)[C@H]1CCC2C3CC=C4C[C@@H](OC(=O)CCCC(=O)O)CC[C@]4(C)C3CC[C@@]21C (stereo partly drawn) [Compound 18]", "outcome measure": "half-life at 10 µM", "result": "> 1 h"}
{"compound": "CO/N=C(\\C)[C@H]1CCC2C3CC=C4C[C@@H](OC(=O)CCCC(=O)O)CC[C@]4(C)C3CC[C@@]21C (stereo partly drawn) [Compound 17]", "outcome measure": "half-life at 10 µM", "result": "> 1 h"}

Recorded half-life at 10 µM of CCO/N=C(\C)[C@H]1CCC2C3CC=C4C[C@@H](OC(=O)CCCCC(=O)O)CC[C@]4(C)C3CC[C@@]21C (stereo partly drawn) [Compound 23] , please.
> 1 h

Recorded half-life at 10 µM of C/C(=N\O)[C@H]1CCC2C3CC=C4C[C@@H](OC(=O)CCCC(=O)O)CC[C@]4(C)C3CC[C@@]21C (stereo partly drawn) [Compound 11] , please.
0.977 h

Recorded half-life at 10 µM of CCO/N=C(\C)[C@H]1CCC2C3CC=C4C[C@@H](OC(=O)CCC(=O)O)CC[C@]4(C)C3CC[C@@]21C (stereo partly drawn) [Compound 22] , please.
0.877 h

* * *

tested on: GluN1/GluN2B receptors (Rattus norvegicus, UniProt P35439+Q00960)
Construct: expressed in transfected cells; host or cells: HEK293 cells (ATCC No. CRL-1573)
assay comment: Patch-clamp: modulation of glutamate-induced currents of recombinant GluN1/GluN2B receptors expressed in HEK293 cells
Format: cell-based
study conditions: concentration-response fit; mean ± SEM
outcome measure: h ± SEM (apparent Hill coefficient)

Recorded h ± SEM (apparent Hill coefficient) of CO/N=C(\C)[C@H]1CCC2C3CC=C4C[C@@H](OC(=O)CCCC(=O)O)CC[C@]4(C)C3CC[C@@]21C (stereo partly shown) [Compound 17] , please.
1.6 ± 0.1

Recorded h ± SEM (apparent Hill coefficient) of CCO/N=C1\CCC2C3CC=C4C[C@@H](OC(=O)CCCC(=O)O)CC[C@]4(C)C3CC[C@]12C (stereo partly shown) [Compound 15] , please.
1.5 ± 0.1

Recorded h ± SEM (apparent Hill coefficient) of C=CCO/N=C(\C)[C@H]1CCC2C3CC=C4C[C@@H](OC(=O)CCCC(=O)O)CC[C@]4(C)C3CC[C@@]21C (stereo partly shown) [Compound 20] , please.
2.0 ± 0.2

Recorded h ± SEM (apparent Hill coefficient) of CCO/N=C(\C)[C@H]1CCC2C3CC=C4C[C@@H](OC(=O)CCC(=O)O)CC[C@]4(C)C3CC[C@@]21C (stereo partly shown) [Compound 22] , please.
1.3 ± 0.1

* * *

assay comment: in vitro
study conditions: male, Wistar, rat, hepatocytes
Description: Primary rat hepatocytes were isolated from 12-weeks-old male Wistar rats (n = 3) by two-step collagenase liver perfusion. Tribromoethanol was used as an anesthetic agent at a dose of 250 mg kg^−1. […] Flow rate was maintained at 7 mL min^−1, and all solutions were kept at 37 °C. […] Cells were subsequently diluted in William's Medium E, and their viability and cell suspension density were determined by Trypan Blue exclusion using a hemocytometer. […]
outcome measure: half-life at 3 µM (h)
Dear colleague, please return just the value in h, with no unit written.

Recorded half-life at 3 µM of CCON=C(C)C1CCC2C3CC=C4CC(OC(=O)CCCC(=O)O)CCC4(C)C3CCC12C (stereo not shown) , please.
1.21

* * *

tested on: GluN1/GluN2B receptors (Rattus norvegicus, UniProt P35439+Q00960)
Construct: expressed in transfected cells; host or cells: HEK293 cells (ATCC No. CRL-1573)
assay comment: Patch-clamp: modulation of glutamate-induced currents of recombinant GluN1/GluN2B receptors expressed in HEK293 cells
Type: cell-based
study conditions: concentration-response fit; mean ± SEM
Description: To investigate the effect of compounds 11–23 on the activity of NMDARs, electrophysiological measurements were performed on HEK293 cells that were co-transfected with cDNAs containing genes encoding for the rat GluN1-1a and GluN2B subunits. […] We have evaluated the relationship between oxime derivatives 11–23 and their modulatory effect on recombinant GluN1/GluN2B receptors. […]
Recorded measurements of h ± SEM (apparent Hill coefficient), one per entry
Hey, just send me the number, nothing else.

{"compound": "C/C(=N\\OCc1ccccc1)[C@H]1CCC2C3CC=C4C[C@@H](OC(=O)CCCC(=O)O)CC[C@]4(C)C3CC[C@@]21C (some centres unmarked) [Compound 21]", "h ± SEM (apparent Hill coefficient)": 1.7}

Recorded h ± SEM (apparent Hill coefficient) of CCO/N=C(\C)[C@H]1CCC2C3CC=C4C[C@@H](OC(=O)CCCCC(=O)O)CC[C@]4(C)C3CC[C@@]21C (some centres unmarked) [Compound 23] , please.
1.7

Recorded h ± SEM (apparent Hill coefficient) of C/C(=N\OCCN1CCOCC1)[C@H]1CCC2C3CC=C4C[C@@H](OC(=O)CCCC(=O)O)CC[C@]4(C)C3CC[C@@]21C (some centres unmarked) [Compound 13] , please.
2.8

Recorded h ± SEM (apparent Hill coefficient) of CCON=C(C)C1CCC2C3CC=C4CC(OC(=O)CCCC(=O)O)CCC4(C)C3CCC12C (centres unmarked) [Compound 12] , please.
1.7

Recorded h ± SEM (apparent Hill coefficient) of C/C(=N\O)[C@H]1CCC2C3CC=C4C[C@@H](OC(=O)CCCC(=O)O)CC[C@]4(C)C3CC[C@@]21C (some centres unmarked) [Compound 11] , please.
1.5

* * *

Recorded measurements of PAMPA permeability Retention (mass retention), one per entry
assay comment: in vitro
study conditions: 5 h, 100 µM, pH 7.4
Dear colleague, please return just the value in %, with no unit written.

Solved entries:
{"compound": "C[C@]12CC[C@H](OC(=O)CCCC(=O)O)CC1=CCC1C2CC[C@]2(C)/C(=N/O)CCC12 (stereo partly drawn) [Compound 14]", "display unit": "%", "result number": 17}
{"compound": "CCO/N=C(\\C)[C@H]1CCC2C3CC=C4C[C@@H](OC(=O)CCC(=O)O)CC[C@]4(C)C3CC[C@@]21C (stereo partly drawn) [Compound 22]", "display unit": "%", "result number": 96}
{"compound": "CCON=C(C)C1CCC2C3CC=C4CC(OC(=O)CCCC(=O)O)CCC4(C)C3CCC12C (stereo not drawn) [Compound 12]", "display unit": "%", "result number": 97}
{"compound": "CO/N=C(\\C)[C@H]1CCC2C3CC=C4C[C@@H](OC(=O)CCCC(=O)O)CC[C@]4(C)C3CC[C@@]21C (stereo partly drawn) [Compound 17]", "display unit": "%", "result number": 95}

Recorded PAMPA permeability Retention (mass retention) of C=CCO/N=C(\C)[C@H]1CCC2C3CC=C4C[C@@H](OC(=O)CCCC(=O)O)CC[C@]4(C)C3CC[C@@]21C (stereo partly drawn) [Compound 20] , please.
99

Recorded PAMPA permeability Retention (mass retention) of CCO/N=C1\CCC2C3CC=C4C[C@@H](OC(=O)CCCC(=O)O)CC[C@]4(C)C3CC[C@]12C (stereo partly drawn) [Compound 15] , please.
80

Recorded PAMPA permeability Retention (mass retention) of CCCO/N=C(\C)[C@H]1CCC2C3CC=C4C[C@@H](OC(=O)CCCC(=O)O)CC[C@]4(C)C3CC[C@@]21C (stereo partly drawn) [Compound 18] , please.
100

Recorded PAMPA permeability Retention (mass retention) of C/C(=N\OCc1ccccc1)[C@H]1CCC2C3CC=C4C[C@@H](OC(=O)CCCC(=O)O)CC[C@]4(C)C3CC[C@@]21C (stereo partly drawn) [Compound 21] , please.
95

Recorded PAMPA permeability Retention (mass retention) of CCO/N=C(\C)[C@H]1CCC2C3CC=C4C[C@@H](OC(=O)CCCCC(=O)O)CC[C@]4(C)C3CC[C@@]21C (stereo partly drawn) [Compound 23] , please.
100

Recorded PAMPA permeability Retention (mass retention) of C/C(=N\OC(C)C)[C@H]1CCC2C3CC=C4C[C@@H](OC(=O)CCCC(=O)O)CC[C@]4(C)C3CC[C@@]21C (stereo partly drawn) [Compound 19] , please.
99

Recorded PAMPA permeability Retention (mass retention) of C/C(=N\OCCN1CCOCC1)[C@H]1CCC2C3CC=C4C[C@@H](OC(=O)CCCC(=O)O)CC[C@]4(C)C3CC[C@@]21C (stereo partly drawn) [Compound 13] , please.
95

Recorded PAMPA permeability Retention (mass retention) of C/C(=N\O)[C@H]1CCC2C3CC=C4C[C@@H](OC(=O)CCCC(=O)O)CC[C@]4(C)C3CC[C@@]21C (stereo partly drawn) [Compound 11] , please.
87
